Listed here are compounds together with their documented IC50.
# System: NADH-cytochrome c (complex I-III activities)
# Protocol: Counter assay NADH-cytochrome c activity, bovine heart mitochondria
# Assay type: biochemical
# Recorded Conditions: read-out: IC50 of the sample against succinate-cytochrome c (complex I-III)
Give the quantity in nM, number only.

Worked cases, answers included:
Fill in the blank: the reported IC50 of CC(C)=CCC/C(C)=C/CC/C(C)=C/Cc1c(O)c2ccccc2oc1=O [Ferulenol] is ____.
280

Fill in the blank: the reported IC50 of C=C(C)[C@H]1Cc2c(ccc3c2O[C@@H]2COc4cc(OC)c(OC)cc4[C@@H]2C3=O)O1 [Rotenone] is ____.
10

Further cases:
Fill in the blank: the reported IC50 of CC(/C=C/[C@@]1(C)[C@H](C)CCC(=O)[C@@H]1C)=C\Cc1c(O)c(Cl)c(C)c(C=O)c1O [Ascochlorin] is ____.
10
